All figures here come from PubChem BioAssay (EPA / NIEHS).

system-under-test: X-box-binding protein 1 (Homo sapiens) (UniProt P17861)
Sequence (P17861 whole entry, looked up): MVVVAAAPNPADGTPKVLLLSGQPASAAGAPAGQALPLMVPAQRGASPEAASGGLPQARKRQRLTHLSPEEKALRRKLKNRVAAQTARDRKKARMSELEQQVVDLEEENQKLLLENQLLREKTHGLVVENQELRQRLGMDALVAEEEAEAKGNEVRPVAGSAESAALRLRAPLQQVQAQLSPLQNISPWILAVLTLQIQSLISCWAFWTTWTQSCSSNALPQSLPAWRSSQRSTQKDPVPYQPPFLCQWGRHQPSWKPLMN
method: ATG_Xbp1_CIS: Attagene CIS-FACTORIAL HepG2 Assay for human X-box Binding Protein 1 (XBP1) (AID 2282972)
recorded-conditions: HepG2 XBP1 cis-element reporter, Attagene multiplex; actives raise or lower the signal
Calls of active or inactive are those of the source. How the source made its calls: active means hit-call score of the fitted dose curve at least 0.9, where 1 is the maximum; inactive means score below 0.9.
measurement-kind: AC50

{"columns": ["compound", "measurement-kind", "assay-value"],
 "data": [
  ["Fc1cccc(Cl)c1CCl", "AC50", "inactive"],
  ["CCCCCCCCCCCCBr", "AC50", "inactive"],
  ["O=C(NC(=O)c1c(F)cccc1F)Nc1cc(Cl)c(OC(F)(F)C(F)C(F)(F)F)cc1Cl (centres undefined)", "AC50", "inactive"],
  ["CC(C)CP(=S)(S)CC(C)C", "AC50", "inactive"],
  ["ClCc1ccccc1Cl", "AC50", "100000 nM (active)"],
  ["Nc1ccc(N)cc1", "AC50", "inactive"],
  ["c1csc(-c2ccc(-c3cccs3)s2)c1", "AC50", "2540 nM (active)"],
  ["CC(C)C(C)(N)C#N (centres undefined)", "AC50", "inactive"],
  ["CCOCn1c(-c2ccc(Cl)cc2)c(C#N)c(Br)c1C(F)(F)F", "AC50", "2710 nM (active)"],
  ["CN(CCCC(O)c1cccnc1)N=O (centres undefined)", "AC50", "inactive"],
  ["Oc1cccc(-c2ccccc2)c1", "AC50", "inactive"],
  ["CS(=O)(=O)c1ccc(C(=O)C2C(=O)CCCC2=O)c(Cl)c1COCC(F)(F)F", "AC50", "inactive"],
  ["Nc1ccc(-c2ccccc2)cc1", "AC50", "inactive"],
  ["Clc1cnc(Oc2ccc(Oc3ncc(Cl)cc3Cl)cc2)c(Cl)c1", "AC50", "inactive"],
  ["CN(C)CCN(C)C", "AC50", "inactive"],
  ["CCOP(=S)(OCC)O/N=C(\\C#N)c1ccccc1", "AC50", "inactive"],
  ["CCCCS(=O)(=O)Cl", "AC50", "inactive"],
  ["C=CC(=O)NC(C)(C)CC(C)=O", "AC50", "inactive"],
  ["CCC(C)(C#N)N=NC(C)(C#N)CC (centres undefined)", "AC50", "inactive"],
  ["CCCSP(=S)(OCC)Oc1ccc(Cl)cc1Cl (centres undefined)", "AC50", "inactive"],
  ["CN(C1CCCCC1)C1CCCCC1", "AC50", "inactive"],
  ["CCOC(=O)CCN(SN(C)C(=O)Oc1cccc2c1OC(C)(C)C2)C(C)C", "AC50", "inactive"],
  ["CCOc1cc(C=O)ccc1O", "AC50", "inactive"],
  ["C1CCC(C2CCCCC2)CC1", "AC50", "inactive"],
  ["CC1(C)[C@H](/C=C2\\CCSC2=O)[C@@H]1C(=O)OCc1coc(Cc2ccccc2)c1", "AC50", "inactive"],
  ["CN(C)C(=S)S", "AC50", "inactive"],
  ["COC(F)(C(F)(F)C(F)(F)F)C(F)(C(F)(F)F)C(F)(F)F (centres undefined)", "AC50", "inactive"],
  ["O=C(O)c1cc(I)cc(I)c1I", "AC50", "inactive"],
  ["Cc1ccccc1OP(=O)(Oc1ccccc1)Oc1ccccc1", "AC50", "inactive"]
]}

====

Read-out: Interleukin-1 alpha (IL1a), IL1A (gene 3552)
method: BSK_KF3CT_IL1a: BioMAP Diversity Plus: KF3CT Assay for Interleukin-1 alpha (IL1a) Biomarker Activity (AID 2283070)
recorded-conditions: primary human keratinocytes with fibroblasts; actives raise or lower the signal
Calls of active or inactive are those of the source. Rule for the calls: active = hit-call score of the fitted dose curve at least 0.9, where 1 is the maximum; inactive = score below 0.9.
measurement-kind: AC50

{"columns": ["compound", "assay-value"],
 "data": [
  ["Cc1cccc(OP(=O)(Oc2cccc(C)c2)Oc2cccc(C)c2)c1", "inactive"],
  ["COCC(=O)N(c1c(C)cccc1C)[C@H](C)C(=O)OC", "inactive"],
  ["CC(C)(C)c1cc([N+](=O)[O-])cc(C(C)(C)C)c1O", "inactive"],
  ["Cc1cc(Cl)ccc1N", "inactive"],
  ["Cc1ccccc1OP(=O)(Oc1ccccc1C)Oc1ccccc1C", "11.3 µM (active)"],
  ["CC(C)N(C(=O)CCl)c1ccccc1", "inactive"],
  ["CCCCOC(=O)COC(=O)c1ccccc1C(=O)OCCCC", "inactive"],
  ["O=c1oc2ccccc2c(O)c1C(CC(O)c1ccc(-c2ccc(Br)cc2)cc1)c1ccccc1 (configuration not stated)", "5.57 µM (active)"],
  ["O=C(O)COc1cc(Cl)c(Cl)cc1Cl", "inactive"],
  ["O=[N+]([O-])c1ccc(Nc2ccccc2)cc1", "inactive"],
  ["CCOP(=S)(OCC)SCS(=O)(=O)C(C)(C)C", "inactive"],
  ["O=C(O)C1(c2ccc3c(c2)OC[C@H](Cc2ccc(-c4ccccc4)cc2)[C@H]3O)CCCC1", "31.3 µM (active)"],
  ["CCN(CC)C(=O)C(Cl)=C(C)OP(=O)(OC)OC", "inactive"],
  ["C#CCOC(=O)/C=C(C)/C=C/CC(C)CCCC(C)C (configuration not stated)", "inactive"],
  ["C=CC(Cl)CCl (configuration not stated)", "0.0797 µM (active)"],
  ["O=C1C=CC(=O)c2ccccc21", "2.04 µM (active)"],
  ["CCC(C)(C#N)N=NC(C)(C#N)CC (configuration not stated)", "inactive"],
  ["Oc1c(Br)cc(Br)cc1Br", "inactive"],
  ["CC(C)O.CC(C)O.OCCN(CCO)CCO.OCCN(CCO)CCO.[Ti]", "inactive"],
  ["OCCN(CCO)CCO", "inactive"],
  ["N#CCCC(Br)(C#N)CBr (configuration not stated)", "14.4 µM (active)"],
  ["OC(Cc1ccccc1Cl)(Cn1[nH]cnc1=S)C1(Cl)CC1 (configuration not stated)", "inactive"],
  ["C[C@]12CC[C@@H](O)C[C@@H]1CC[C@@H]1[C@@H]2CC[C@]2(C)C(=O)CC[C@@H]12", "inactive"],
  ["Cc1cc(Cl)ccc1OC(C)C(=O)O (configuration not stated)", "inactive"],
  ["Oc1cc(Cl)c(Cl)cc1Cl", "inactive"],
  ["CCOP(=O)(OCC)SCCSCC", "inactive"],
  ["O=C(N[C@H]1CN2CCC1CC2)c1ccc2c(c1)OCCO2", "inactive"]
]}

====

system-under-test: Signal transducer and activator of transcription 3 (Homo sapiens) (UniProt P40763)
Sequence (P40763 whole entry, looked up): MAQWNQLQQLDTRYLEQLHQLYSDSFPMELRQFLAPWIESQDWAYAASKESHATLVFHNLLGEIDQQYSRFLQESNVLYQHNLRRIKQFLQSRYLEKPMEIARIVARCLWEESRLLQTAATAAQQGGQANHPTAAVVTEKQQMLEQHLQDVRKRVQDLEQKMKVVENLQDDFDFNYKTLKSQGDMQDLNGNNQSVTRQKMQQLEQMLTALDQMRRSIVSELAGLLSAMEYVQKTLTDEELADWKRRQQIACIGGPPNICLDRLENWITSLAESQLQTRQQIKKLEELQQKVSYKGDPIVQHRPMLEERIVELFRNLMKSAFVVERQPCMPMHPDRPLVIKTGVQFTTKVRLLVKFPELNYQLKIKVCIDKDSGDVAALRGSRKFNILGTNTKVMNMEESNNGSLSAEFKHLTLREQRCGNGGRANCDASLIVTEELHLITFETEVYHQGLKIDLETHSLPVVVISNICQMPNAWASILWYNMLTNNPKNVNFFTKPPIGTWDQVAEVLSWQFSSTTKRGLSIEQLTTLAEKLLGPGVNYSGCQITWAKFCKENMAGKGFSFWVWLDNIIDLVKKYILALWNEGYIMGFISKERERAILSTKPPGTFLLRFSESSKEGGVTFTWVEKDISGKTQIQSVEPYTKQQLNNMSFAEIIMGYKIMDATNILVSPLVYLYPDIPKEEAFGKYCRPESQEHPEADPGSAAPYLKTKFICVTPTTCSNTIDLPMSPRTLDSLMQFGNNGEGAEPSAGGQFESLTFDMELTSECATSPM
method: ATG_STAT3_CIS: Attagene CIS-FACTORIAL HepG2 Assay for human Signal Transducer and Activator of Transcription 3 (STAT3) (AID 2282963)
recorded-conditions: HepG2, Attagene cis-factorial STAT3 reporter transcription; actives raise or lower the signal
Calls of active or inactive are those of the source. Rule for the calls: active = hit-call score of the fitted dose curve at least 0.9, where 1 is the maximum; inactive = score below 0.9.
Outcomes: label 1 for active, label 0 for inactive

{"columns": ["compound", "category-label"],
 "data": [
  ["c1ccc2c(c1)Oc1ccccc1O2", "label 0"],
  ["CC(C=O)Cc1ccc2c(c1)OCO2 (configuration not stated)", "label 0"],
  ["FC(F)OCC(F)(F)C(F)(F)F", "label 0"],
  ["CC(c1ccc(O)cc1)c1ccc(O)cc1", "label 0"],
  ["CC1(C)[C@H](C(=O)O[C@H](C#N)c2cccc(Oc3ccccc3)c2)[C@@H]1/C=C(\\Cl)C(F)(F)F", "label 0"],
  ["Cc1c([N+](=O)[O-])c(C)c([N+](=O)[O-])c(C(C)(C)C)c1[N+](=O)[O-]", "label 0"],
  ["Cc1cc(C(C)(C)c2ccc(O)c(C)c2)ccc1O", "label 1"],
  ["O=[N+]([O-])c1ccc(Nc2ccccc2)cc1", "label 0"],
  ["Cc1cccc(C)c1NC(=O)CN1CCCC1=O", "label 0"],
  ["CCCCN(CCCC)C(=S)[S-].CCCCN(CCCC)C(=S)[S-].[Ni+2]", "label 0"],
  ["O=C1C[C@@H]2OCC=C3CN4CC[C@]56c7ccccc7N1[C@H]5[C@H]2[C@H]3C[C@H]46", "label 0"],
  ["CCCCCCCCCCCCBr", "label 0"]
]}

====

system-under-test: Estrogen receptor (Homo sapiens) (UniProt P03372)
Sequence (P03372 whole entry, looked up): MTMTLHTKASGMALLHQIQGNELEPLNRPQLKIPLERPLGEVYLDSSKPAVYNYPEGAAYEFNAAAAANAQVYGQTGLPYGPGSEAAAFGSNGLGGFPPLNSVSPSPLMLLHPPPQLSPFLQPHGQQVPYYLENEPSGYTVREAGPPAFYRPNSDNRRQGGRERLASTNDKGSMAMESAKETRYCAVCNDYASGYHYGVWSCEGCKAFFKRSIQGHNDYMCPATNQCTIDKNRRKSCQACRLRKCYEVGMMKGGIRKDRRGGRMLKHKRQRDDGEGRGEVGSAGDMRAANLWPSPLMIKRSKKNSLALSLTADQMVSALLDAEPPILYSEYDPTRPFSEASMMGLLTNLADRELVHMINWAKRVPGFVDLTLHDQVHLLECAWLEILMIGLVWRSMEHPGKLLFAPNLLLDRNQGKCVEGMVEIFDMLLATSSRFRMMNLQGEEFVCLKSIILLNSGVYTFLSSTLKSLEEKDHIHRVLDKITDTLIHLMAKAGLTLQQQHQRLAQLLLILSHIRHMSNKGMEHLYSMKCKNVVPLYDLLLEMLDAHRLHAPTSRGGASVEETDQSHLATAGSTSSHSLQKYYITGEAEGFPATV
method: ATG_ERa_TRANS: Attagene TRANS-FACTORIAL HepG2 Assay for human Estrogen Receptor alpha (ERa) (AID 2282970)
recorded-conditions: HepG2 Attagene TRANS ERa GAL4 reporter, mRNA
Records with an inconclusive call do not appear. Calls of active or inactive are those of the source. Rule for the calls: active = hit-call score of the fitted dose curve at least 0.9, where 1 is the maximum; inconclusive = response in the unintended direction; inactive = score below 0.9.
Outcomes: active, inactive

{"columns": ["compound", "category-label"],
 "data": [
  ["OCC(c1ccc(Cl)cc1)c1ccc(Cl)cc1", "inactive"],
  ["[F][Sn]([c]1ccccc1)([c]1ccccc1)[c]1ccccc1", "inactive"],
  ["CC(C)(c1ccc(O)c(-c2ccccc2)c1)c1ccc(O)c(-c2ccccc2)c1", "inactive"],
  ["O=S(=O)(c1ccc(Cl)cc1)c1cc(Cl)c(Cl)cc1Cl", "inactive"],
  ["CC(C)CP(=S)(S)CC(C)C", "inactive"],
  ["CCOc1ccc(N)cc1", "inactive"],
  ["O=C(CCl)Nc1ccccc1", "inactive"],
  ["CC(C)(C1CCC(O)CC1)C1CCC(O)CC1 (stereo unspecified)", "active"],
  ["O=C(NC(=O)c1c(F)cccc1F)Nc1cc(Cl)c(OC(F)(F)C(F)C(F)(F)F)cc1Cl (stereo unspecified)", "inactive"],
  ["CC(=Cc1ccccc1)[N+](=O)[O-]", "inactive"],
  ["N#CCCC(Br)(C#N)CBr (stereo unspecified)", "inactive"],
  ["CN(N=O)c1ccc([N+](=O)[O-])cc1", "inactive"],
  ["O=S1OC[C@@H]2[C@H](CO1)[C@]1(Cl)C(Cl)=C(Cl)[C@@]2(Cl)C1(Cl)Cl (stereo partly specified)", "active"],
  ["ClCc1ccccc1CCl", "inactive"],
  ["NC(=O)CCl", "inactive"],
  ["Cc1ccccc1OP(=O)(Oc1ccccc1C)Oc1ccccc1C", "active"],
  ["CC(C)(C)c1cc([N+](=O)[O-])cc(C(C)(C)C)c1O", "inactive"],
  ["Nc1nc(N)nc(Cl)n1", "inactive"],
  ["O=C1C=CC(=O)c2ccccc21", "active"],
  ["CCCSP(=S)(OCC)Oc1ccc(Cl)cc1Cl (stereo unspecified)", "active"],
  ["CC(=O)CN(CC(C)=O)N=O", "inactive"],
  ["N#Cc1cccnc1", "inactive"],
  ["CCCCN(CCCC)C(=S)S", "inactive"],
  ["OC(c1ccc(Cl)cc1)(c1ccc(Cl)cc1)c1cccnc1", "inactive"],
  ["O=C(Cl)OCCOCCOC(=O)Cl", "inactive"],
  ["CS(=O)(=O)c1ccc(C(=O)C2C(=O)CCCC2=O)c(Cl)c1COCC(F)(F)F", "inactive"]
]}
